What follows is a collection of log10 IC50 values obtained with Sodium-dependent dopamine transporter (Rattus norvegicus, UniProt P23977).
Sequence (P23977 whole entry): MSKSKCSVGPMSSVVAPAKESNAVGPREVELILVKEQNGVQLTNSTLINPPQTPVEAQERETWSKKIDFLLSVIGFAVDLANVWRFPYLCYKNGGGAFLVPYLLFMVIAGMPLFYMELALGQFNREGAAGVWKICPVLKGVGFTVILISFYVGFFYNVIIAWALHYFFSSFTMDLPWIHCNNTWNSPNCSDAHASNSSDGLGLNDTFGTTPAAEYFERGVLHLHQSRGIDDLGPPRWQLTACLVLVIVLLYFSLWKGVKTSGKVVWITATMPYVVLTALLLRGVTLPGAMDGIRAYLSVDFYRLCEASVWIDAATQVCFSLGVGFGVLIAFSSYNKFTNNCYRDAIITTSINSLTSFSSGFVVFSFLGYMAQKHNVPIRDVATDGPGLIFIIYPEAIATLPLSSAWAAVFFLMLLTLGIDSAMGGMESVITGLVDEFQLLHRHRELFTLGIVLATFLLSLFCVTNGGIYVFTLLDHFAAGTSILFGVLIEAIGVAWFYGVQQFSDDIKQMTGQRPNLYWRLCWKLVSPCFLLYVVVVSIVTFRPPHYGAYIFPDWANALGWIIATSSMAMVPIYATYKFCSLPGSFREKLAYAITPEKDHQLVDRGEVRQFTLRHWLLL
MEASUREMENT NAME: log10 IC50 (log10 of the value in nM)

1) COC(=O)[C@H](c1ccc(C)cc1)[C@H]1CCCCN1C; 2.14
2) COC(=O)[C@H](c1ccc(O)cc1)[C@H]1CCCCN1; 1.99
3) COC(=O)[C@H](c1ccccc1)[C@H]1CCCCN1C; 2.70
4) COC(=O)[C@H](c1cccc(Cl)c1)[C@H]1CCCCN1C; 2.21
5) COC(=O)[C@H](c1cccc(Cl)c1)C1CCCCN1 (some centres undefined); 0.71
6) COC(=O)[C@H](c1ccc(C)cc1)C1CCCCN1 (some centres undefined); 1.52
7) COC(=O)[C@H](c1cccc(C)c1)[C@H]1CCCCN1C; 2.03
8) COC(=O)[C@H](c1cccc(C)c1)[C@H]1CCCCN1; 1.33
9) COC(=O)[C@H](c1ccc(O)cc1)[C@H]1CCCCN1C; 3.09
